This collection of values is drawn from patent US10940139B2.

Overview of recorded IC50 for various compounds
system under test: KRas G12D/Q61H double mutant (Homo sapiens (Human), UniProt P01116, G12D/Q61H)
Sequence (P01116-2 other isoform, or with tags, fused parts or gaps G12D/Q61H): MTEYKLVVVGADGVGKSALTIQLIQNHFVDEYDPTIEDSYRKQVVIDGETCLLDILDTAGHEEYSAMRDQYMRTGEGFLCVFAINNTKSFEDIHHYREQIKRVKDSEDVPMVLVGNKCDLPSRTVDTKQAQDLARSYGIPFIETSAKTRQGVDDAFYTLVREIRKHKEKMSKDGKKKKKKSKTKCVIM
test details: Ras GTP binding domain inhibition assay (labeled GTP)
test context: read-out: KRas G12D Q61H IC50

Tell me the measured IC50 of CC(Oc1cccc(C#N)c1)C(=O)Nc1nnc(-c2ccccn2)[nH]1 (centres unmarked) [drawing 2511] , please. < 5 µM

Tell me the measured IC50 of Cc1cccc(OCC(=O)Nc2nnc(-c3ccccn3)[nH]2)c1 [drawing 2555] , please. 5 to 10 µM

Tell me the measured IC50 of O=C(CCc1c[nH]c2ccccc12)Nc1nnc(-c2ccccn2)[nH]1 [drawing 2471] , please. < 5 µM

Tell me the measured IC50 of O=c1nc(-c2ccccn2)[nH]c2c1sc1ccccc12 [drawing 2592] , please. 11 to 30 µM

Tell me the measured IC50 of COc1ccc(COCC(=O)N2CCCc3c(O)nc(-c4ccccn4)nc32)cc1 [drawing 2639] , please. < 5 µM
